- Test system: AR mRNA
- test details: Dose-dependent antisense inhibition of human AR in HuVEC cells (electroporation, qRT-PCR RTS3559, IC50)
- Type: cell-based
- test context: Table 34; 3000.0 nM, HuVEC, electroporation, approximately 16 hours
Oligonucleotides are written 5' to 3', each unit as a sugar letter and its base; * is a phosphorothioate linkage, no mark a phosphodiester; rarer units and linkages stand in square brackets, end groups in braces. Plain capitals give the bases only. k = constrained ethyl (cEt); [5mC] = 5-methylcytosine; d = 2'-deoxy (DNA)
experimental readout: percent inhibition of AR, 3000.0 nM
Hey, just the number and the unit after it is fine.

Check out these entries, answers already filled in.
>>> df
                                  substance  reading
0  549458 (kG*kT*kT*dG*dA*dT*dT*dT*dA*dA*dT*dG*dG*kT*kT*kG) [compound 549458]      95%
1  583922 (kA*kG*kT*dT*dG*dT*dA*dG*dT*dA*dG*dT*d[5mC]*kG*k[5mC]*kG; antisense) [compound 583922]      92%

Could you now look at the following substance, please?
## Input # return recorded percent inhibition of AR, 3000.0 nM for input 584002 (k[5mC]*kT*kG*d[5mC]*dT*d[5mC]*dA*d[5mC]*d[5mC]*dA*dT*dG*d[5mC]*k[5mC]*kG*k[5mC]; antisense) [compound 584002]
## Output 92%

###

TMPRSS2 mRNA levels (% baseline value) after treatment with R1881 for assorted substances
- Tested on: TMPRSS2 mRNA
- test details: TMPRSS2 mRNA levels in LMR20 cells
- Type: cell-based, human
- test context: LMR20 cells, R1881 10 nM 72 hrs, ASO 1.0 μM
Oligonucleotides are written 5' to 3', each unit as a sugar letter and its base; * is a phosphorothioate linkage, no mark a phosphodiester; rarer units and linkages stand in square brackets, end groups in braces. Plain capitals give the bases only. e = 2'-O-(2-methoxyethyl) (MOE); k = constrained ethyl (cEt); [5mC] = 5-methylcytosine; d = 2'-deoxy (DNA)
# output: bare number, implied unit % baseline value

## Input For 569236 (antisense eT*kG*kA*kT*dT*dT*dA*dA*dT*dG*dG*kT*kT*kG*e[5mC]*eA) [compound 569236] , write its TMPRSS2 mRNA levels (% baseline value) after treatment with R1881.
## Output 98

###

A collection of substances and their measured AR mRNA levels (% baseline value) of cells without AR agonist treatment
- System: AR mRNA
- test details: AR mRNA levels in LMR20 cells (with/without DHT or R1881)
- Assay type: cell-based, human
- test context: LMR20 cells, no AR agonist, ASO 0.04 μM
Oligonucleotides are written 5' to 3', each unit as a sugar letter and its base; * is a phosphorothioate linkage, no mark a phosphodiester; rarer units and linkages stand in square brackets, end groups in braces. Plain capitals give the bases only. e = 2'-O-(2-methoxyethyl) (MOE); l = locked nucleic acid (LNA); k = constrained ethyl (cEt); [5mC] = 5-methylcytosine; d = 2'-deoxy (DNA)
Record the value in % baseline value, omitting the unit from your answer.

substance	target desc	reading
549458 (kG*kT*kT*dG*dA*dT*dT*dT*dA*dA*dT*dG*dG*kT*kT*kG) [compound 549458]	AR mRNA	101

## Input Tell us which AR mRNA levels (% baseline value) of cells without AR agonist treatment value is on record for 560131 (antisense kT*kT*kG*dA*dT*dT*dT*dA*dA*dT*dG*dG*kT*kT*kG*e[5mC]) [compound 560131]
## Output 107

## Input Return reported AR mRNA levels (% baseline value) of cells without AR agonist treatment. Input substance: 554221 (ACCAAGTTTCTTCAGC; sugars from the 5' end l3 d10 l3, all phosphorothioate, methylation of C not given here) [compound 554221]
## Output 124

## Input Return reported AR mRNA levels (% baseline value) of cells without AR agonist treatment. Input substance: 569236 (antisense eT*kG*kA*kT*dT*dT*dA*dA*dT*dG*dG*kT*kT*kG*e[5mC]*eA) [compound 569236]
## Output 104

###

- Test system: AR mRNA
- test details: Antisense inhibition of human AR in HuVEC cells, single concentration (electroporation, qRT-PCR RTS3559)
- Format: cell-based
- test context: 500 nM ASO, ~24 h, Table 5
Oligonucleotides are written 5' to 3', each unit as a sugar letter and its base; * is a phosphorothioate linkage, no mark a phosphodiester; rarer units and linkages stand in square brackets, end groups in braces. Plain capitals give the bases only. e = 2'-O-(2-methoxyethyl) (MOE); k = constrained ethyl (cEt); [5mC] = 5-methylcytosine; d = 2'-deoxy (DNA)
Reported % inhibition values follow for various substances
Kindly provide the numeric value in % only, without the unit symbol.

Consider the reported % inhibition for these substances:
In [3]: df
Out[3]:
                                  substance  target_desc  experimental_readout  reading
0  560099 (kG*kG*kT*dT*dG*dA*dT*dT*dT*dA*dA*dT*dG*kG*kT*kT) [compound 560099]      AR mRNA          % inhibition       95
1  549458 (kG*kT*kT*dG*dA*dT*dT*dT*dA*dA*dT*dG*dG*kT*kT*kG) [compound 549458]      AR mRNA          % inhibition       94
2  560071 (eT*eG*eG*eT*eT*dG*dA*dT*dT*dT*dA*dA*dT*dG*dG*eT*eT*eG*e[5mC]*eA) [compound 560071]      AR mRNA          % inhibition       73
3  560100 (antisense kT*kG*kG*dT*dT*dG*dA*dT*dT*dT*dA*dA*dT*kG*kG*kT) [compound 560100]      AR mRNA          % inhibition       91

Consider the record given below.
## Input For the substance 560098 (kT*kG*kA*dT*dT*dT*dA*dA*dT*dG*dG*dT*dT*kG*k[5mC]*kA; further chemistry not given here) [compound 560098] , report % inhibition.
## Output 99

###

- Test system: AR mRNA
- test details: Dose-dependent antisense inhibition of human AR in HuVEC cells (electroporation, qRT-PCR RTS3559, IC50)
- Type: cell-based
- test context: HuVEC cells, electroporation, 3000.0 nM ASO
Oligonucleotides are written 5' to 3', each unit as a sugar letter and its base; * is a phosphorothioate linkage, no mark a phosphodiester; rarer units and linkages stand in square brackets, end groups in braces. Plain capitals give the bases only. k = constrained ethyl (cEt); [5mC] = 5-methylcytosine; d = 2'-deoxy (DNA)
Measured inhibition of AR mRNA at 3000.0 nM, listed per entry for reference.
Write it as a number; the unit % goes unstated.

                                  substance                experimental_readout  reading
0  586227 (kT*kG*kA*kT*kT*dT*dA*dA*dT*dG*dG*dT*dT*kG*k[5mC]*kA; antisense) [compound 586227]  inhibition of AR mRNA at 3000.0 nM       96

## Input Annotate the substance 549372 (kA*kA*kG*dT*dT*dG*dT*dA*dG*dT*dA*dG*dT*k[5mC]*kG*k[5mC]) [compound 549372] with its measured inhibition of AR mRNA at 3000.0 nM.
## Output 87

## Input Given 586124 (kG*kA*kT*dT*dT*dA*dA*dT*dG*dG*dT*dT*dG*k[5mC]*kA*kA; further chemistry not given here) [compound 586124] , respond with its inhibition of AR mRNA at 3000.0 nM.
## Output 94

## Input Determine from records and report inhibition of AR mRNA at 3000.0 nM for 549458 (kG*kT*kT*dG*dA*dT*dT*dT*dA*dA*dT*dG*dG*kT*kT*kG) [compound 549458]
## Output 96

## Input Return inhibition of AR mRNA at 3000.0 nM (reported value) for this substance: 586225 (kG*kT*kT*kG*kA*dT*dT*dT*dA*dA*dT*dG*dG*kT*kT*kG; antisense) [compound 586225]
## Output 97

## Input Answer with reported inhibition of AR mRNA at 3000.0 nM of 586224 (kT*kT*kG*kA*kT*dT*dT*dA*dA*dT*dG*dG*dT*kT*kG*k[5mC]; antisense) [compound 586224]
## Output 98

###

- Tested on: AR mRNA
- test details: Dose-dependent antisense inhibition of human AR in HuVEC cells (electroporation, qRT-PCR RTS3559, IC50)
- Format: cell-based
- test context: 500.0 nM; HuVEC, ~16 h; Table 3
Oligonucleotides are written 5' to 3', each unit as a sugar letter and its base; * is a phosphorothioate linkage, no mark a phosphodiester; rarer units and linkages stand in square brackets, end groups in braces. Plain capitals give the bases only. k = constrained ethyl (cEt); [5mC] = 5-methylcytosine; d = 2'-deoxy (DNA)
1 means recorded percent inhibition of AR is 80% or above; -1 means it is below 80%.

substance	assigned label
549383 (k[5mC]*k[5mC]*kA*dA*dA*d[5mC]*dG*d[5mC]*dA*dT*dG*dT*d[5mC]*k[5mC]*k[5mC]*k[5mC]; antisense) [compound 549383]	-1
549374 (kG*k[5mC]*kG*d[5mC]*dT*dG*d[5mC]*d[5mC]*dG*dT*dA*dG*dT*k[5mC]*k[5mC]*kA; antisense) [compound 549374]	1
549372 (kA*kA*kG*dT*dT*dG*dT*dA*dG*dT*dA*dG*dT*k[5mC]*kG*k[5mC]) [compound 549372]	1
549388 (kT*k[5mC]*k[5mC]*d[5mC]*dT*dT*d[5mC]*dA*dG*d[5mC]*dG*dG*d[5mC]*kT*k[5mC]*kT; antisense) [compound 549388]	-1
549362 (k[5mC]*k[5mC]*k[5mC]*dG*dA*dA*dG*d[5mC]*dT*dG*dT*dT*d[5mC]*k[5mC]*k[5mC]*k[5mC]; antisense) [compound 549362]	-1
549358 (kA*kT*kG*dG*dT*dG*d[5mC]*dT*dG*dG*d[5mC]*d[5mC]*dT*k[5mC]*kG*k[5mC]; antisense) [compound 549358]	1

## Input Hello, I need to know if 549371 (kG*kT*kT*dG*dT*dA*dG*dT*dA*dG*dT*d[5mC]*dG*k[5mC]*kG*kA; antisense) [compound 549371] has measured percent inhibition of AR not below 80%. Thanks!
## Output 1

## Input Determine whether measured percent inhibition of AR meets or exceeds 80% for 549377 (kA*kG*kG*dA*dT*dG*dA*dG*dG*dA*dA*dG*d[5mC]*kG*kG*k[5mC]; antisense) [compound 549377]
## Output -1

## Input Check the entry 549379 (kG*k[5mC]*kT*d[5mC]*d[5mC]*d[5mC]*dG*d[5mC]*d[5mC]*dT*d[5mC]*dG*d[5mC]*k[5mC]*kG*k[5mC]; antisense) [compound 549379] : does percent inhibition of AR equal or exceed 80%?
## Output -1

## Input Answer whether percent inhibition of AR of 549381 (kG*k[5mC]*k[5mC]*dG*d[5mC]*d[5mC]*dA*dG*dG*dG*dT*dA*d[5mC]*k[5mC]*kA*k[5mC]; antisense) [compound 549381] is greater than or equal to 80%.
## Output -1

## Input Would you say 549361 (kG*kA*k[5mC]*dA*d[5mC]*d[5mC]*dG*dA*d[5mC]*dA*d[5mC]*dT*dG*k[5mC]*k[5mC]*kT; antisense) [compound 549361] shows percent inhibition of AR at minimum 80%?
## Output -1
